Give measured pKd for each item. Keep answers brief.
Molecular target: T1, PUF4 RNA-binding domain (Saccharomyces cerevisiae, UniProt P25339 537-888)
T1 sequence: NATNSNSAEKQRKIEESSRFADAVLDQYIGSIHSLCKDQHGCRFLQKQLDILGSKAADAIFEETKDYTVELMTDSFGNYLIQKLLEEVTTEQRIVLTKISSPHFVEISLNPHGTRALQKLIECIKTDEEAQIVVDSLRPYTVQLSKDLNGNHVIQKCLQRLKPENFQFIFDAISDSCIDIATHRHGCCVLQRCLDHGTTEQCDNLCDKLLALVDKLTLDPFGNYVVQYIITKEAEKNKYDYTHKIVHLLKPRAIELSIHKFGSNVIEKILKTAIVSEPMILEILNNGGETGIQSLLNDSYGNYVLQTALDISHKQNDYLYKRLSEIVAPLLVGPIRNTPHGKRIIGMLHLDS
Assay: Mg; RNA-MaP; 20 mM Na-HEPES pH 7.4, 30 mM KOAc, 0.75 mM MgCl2, 0.1% Tween-20, 5% glycerol, 0.1 mg/mL BSA, 2 mM DTT; 25 C; 0.0125-409.6 nM protein
Details: tags: N-His6-TEV cleaved; C-SNAP kept, Cy3B-labelled; label: tethered on chip by stalled RNA polymerase
Formally, pKd is defined as -log10 of the concentration c, with c in mol/L.

Task: GET /values?readout=pKd&item= UCUCUUUGUAUUACGUCUCUU (ssRNA) [Ic_S1_P4E.1_K4.1_C4.1_H4.1_A4.1_[A6T]_[T7A]_F4.1_[T8C]_[A9G]_T4.1]
Output: 6.07

Task: Would you mind telling me what pKd value was observed for UCUCUUUGUACAUGUAUCUCUU (ssRNA) [Ic_S1_P5E.1_K5.1_C5.1_H5.1_A5.1_[T5C]_[T6A]_[A7T]_F5.1_[T8G]_T5.1] ?
Output: 8.05

Task: Fill in: pKd of Ib_S4_P5E.1_K5.1_C5.1_H5.1_[T1C]_A5.1_F5.1_[T8A]_T5.1 (ssRNA) RNA: UUUGACAACUGAUCGUUCUUUCUCGUAUUAAUAUUCUUUCUCGAUCAGUUGUCUUU is ___
Output: 6.02

Task: Find the recorded pKd belonging to UCUCUUCGUAUAUUAUUAGCUCUCUU (ssRNA) [Id_ii_S1_P5E.3_K5.2_C5.2_[T-1G]_H5.2_A5.1_F5.1_T5.2_[T11G]_[A12C]] and report it.
Output: 7.59

Task: So what's the measured pKd for this one? UCUCUUAUUGUAUAUUACUUCUCUU (ssRNA) [Id_ii_S1_P4E.2_K4.1_C4.2_[C-2A]_H4.1_A4.1_F4.1_T4.2_[G10C]]
Output: 8.93

Task: Need pKd of Ic_S4_P5E.1_K5.1_C5.1_H5.1_A5.1_[T5G]_[T6C]_[A7T]_F5.1_[T8C]_[T9C]_[A10C]_T5.1 (ssRNA) RNA: UUUGACAACUGAUCGUUCUUUCUUGUAGCUCCCUUCUUUCUCGAUCAGUUGUCUUU , thanks.
Output: 6.18

Task: For the binder shown here, Id_ii_S4_P5E.2_K5.1_C5.2_[C-2G]_[T-1C]_H5.1_A5.1_F5.1_T5.2_[A12C] (ssRNA) RNA: UUUGACAACUGAUCGUUCUUUCUGCUGUAUUAUUAUCUUCUUUCUCGAUCAGUUGUCUUU , give the reported pKd.
Output: 8.28

Task: Would you kindly share the measured pKd for UCUCUUCUACACUAUUAUCUCUCUU (ssRNA) [Id_ii_S1_P4E.4_K4.3_C4.2_H4.3_A4.1_F4.1_T4.2_[G10T]_[T11C]] ?
Output: 5.77

Task: Looking for the measured pKd of Ib_S4_P3E.1_K3.1_C3.1_H3.1_[T1A]_A3.1_[A6G]_F3.1_T3.1 (ssRNA) RNA: UUUGACAACUGAUCGUUCUUUCUAGUAUGUAUUCUUUCUCGAUCAGUUGUCUUU , can you help?
Output: 6.65

Task: Entry under review: Ie_S4_P4E.1_K4.1_C4.1_H4.1_[+2CCTCT]_A4.1_F4.1_T4.1 (ssRNA) RNA: UUUGACAACUGAUCGUUCUUUCUUGCCUCUUAUAUUAUUCUUUCUCGAUCAGUUGUCUUU . Reported pKd?
Output: 6.93

Task: I would be grateful if you could share the reported pKd for UCUCUUUGUUUCCAUAUUAUCUCUU (ssRNA) [Ie_S1_P4E.1_K4.1_C4.1_H4.1_[+3TTCC]_A4.1_F4.1_T4.1] .
Output: 7.08

Task: GET /values?readout=pKd&item= UCUCUUCUUAUAUUAUUACAUCUCUU (ssRNA) [Id_ii_S1_P5E.3_K5.2_C5.2_H5.2_A5.1_F5.1_T5.2_[T11C]]
Output: 6.33

Task: What pKd value was documented for this binder, Ic_S4_P4E.1_K4.1_C4.1_H4.1_A4.1_[T7G]_F4.1_[A9G]_T4.1 (ssRNA) RNA: UUUGACAACUGAUCGUUCUUUCUUGUAUAGUGUUCUUUCUCGAUCAGUUGUCUUU ?
Output: 7.87

Task: Which pKd is reported for this binder? Id_ii_S2_P3E.3_K3.2_C3.2_[C-2T]_[T-1C]_H3.2_A3.1_F3.1_T3.2_[T9C]_[A10G] (ssRNA) RNA: UUUGAUUAAUAUGAUAUCGUUCUUUCUUCUAUAUAUACGUUCUUUCUCGAUAUCAUAUUAAUCUUU
Output: 6.27

Task: For Ib_S4_P5E.1_K5.1_C5.1_H5.1_[A4G]_A5.1_F5.1_[A10C]_T5.1 (ssRNA) RNA: UUUGACAACUGAUCGUUCUUUCUUGUGUUAUUCUUCUUUCUCGAUCAGUUGUCUUU , what is its reported pKd?
Output: 6.98

Task: What does the record list as pKd for UCUCUUUGUACGUAAUUCUCUU (ssRNA) [Ic_S1_P5E.1_K5.1_C5.1_H5.1_A5.1_[T5C]_[T6G]_[A7T]_F5.1_[T8A]_[T9A]_[A10T]_T5.1] ?
Output: 6.90

Task: Which value of pKd has been reported for UCUCUUUGUAUUAUGAUCUCUU (ssRNA) [Ia_S1_P5E.1_K5.1_C5.1_H5.1_A5.1_F5.1_[T9G]_T5.1] in the records?
Output: 7.82

Task: Any idea what pKd was measured for Ic_S4_P4E.1_K4.1_C4.1_H4.1_A4.1_[T5G]_[A6T]_[T7G]_F4.1_[T8C]_[A9C]_T4.1 (ssRNA) RNA: UUUGACAACUGAUCGUUCUUUCUUGUAGUGCCUUCUUUCUCGAUCAGUUGUCUUU ?
Output: 5.91
